# Target System: PDE 7 (phosphodiesterase VII) (Homo sapiens (Human), UniProt Q13946)
# Sequence (Q13946 whole entry): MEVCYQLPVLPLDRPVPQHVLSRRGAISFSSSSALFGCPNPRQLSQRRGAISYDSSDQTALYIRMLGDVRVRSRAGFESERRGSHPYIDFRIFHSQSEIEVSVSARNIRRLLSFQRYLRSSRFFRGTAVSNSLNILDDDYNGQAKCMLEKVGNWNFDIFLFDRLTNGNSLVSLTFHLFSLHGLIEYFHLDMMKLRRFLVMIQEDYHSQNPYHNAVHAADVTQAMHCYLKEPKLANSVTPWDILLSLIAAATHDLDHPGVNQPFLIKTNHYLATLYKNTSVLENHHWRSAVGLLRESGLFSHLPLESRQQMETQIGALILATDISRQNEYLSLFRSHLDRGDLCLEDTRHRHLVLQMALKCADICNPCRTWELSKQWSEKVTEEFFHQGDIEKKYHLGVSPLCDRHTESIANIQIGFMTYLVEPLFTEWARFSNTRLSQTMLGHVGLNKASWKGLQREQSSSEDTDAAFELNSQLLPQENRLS
# Assay Overview: PDE 7 inhibiting effect (3H-cAMP hydrolysis, PDE 7 active fraction from MOLT-4 cells)
# Type: biochemical
# Details: read-out: PDE7 IC50
Where a name gives a salt, the structure may show the parent alone.
Measured Metric: pIC50
// returns pIC50 (minus log10 of molar concentration), number only

Compound | Assay Value
Cc1nn(C2CCCCC2)c2sc(C(=O)Nc3ccc(N4CCCN(C)CC4)c(F)c3)cc12 | 8.05

Kindly note the recorded pIC50 for Cc1nn(C2CCCCC2)c2sc(C(=O)Nc3ccc(N4CCN(C)CC4)nc3)cc12 [Example 109, di-HCl salt] , which is 7.82

---

# Target System: PDE 4 (phosphodiesterase IV)
# Assay Overview: PDE 4 inhibiting effect (3H-cAMP hydrolysis, PDE 4 active fraction from Balb/c mouse liver)
# Format: biochemical
# Details: PDE 4 fraction from Balb/c mice liver, 0.064 μM cAMP, 2 hours at 25° C.; read-out: PDE4 IC50
Measured Metric: pIC50
# pIC50: negative log10 of molar concentration; output just the value

Here are 5 compounds together with their reported answers.
Compound | Assay Value
Cc1nn(C2CCCCC2)c2sc(C(=O)NCC(C)(C)CN3C(=O)CNC3=O)cc12 [Example 339] | 5.29
Cc1nn(C2CCOCC2)c2sc(C(=O)N[C@H]3CC[C@H](N4CCN(S(C)(=O)=O)CC4)CC3)cc12 [Example 396] | 6.05
Cc1nn(C2CCCCC2)c2sc(C(=O)Nc3ccc(N4CCC(O)CC4)c(F)c3F)cc12 [Example 371] | 5.44
CNC(=O)Cc1ccc(NC(=O)c2cc3c(C)nn(C4CCCCC4)c3s2)cc1 [Example 70] | 5.33
CC(=O)N(C)C1CCN([C@H]2CC[C@H](NC(=O)c3cc4c(C)nn(C5CCCCC5)c4s3)CC2)CC1 [Example 180] | 5.85

Cc1nn(C2CCCCC2)c2sc(C(=O)Nc3ccc4c(c3)CC(=O)N4)cc12 [Example 26] yielded pIC50 of 5.52

Quick note, pIC50 for Cc1nn(C2CCCCC2)c2sc(C(=O)N[C@H]3CC[C@H](N4CCN(C)C4=O)CC3)cc12 [Example 280] landed at 5.72

Entry Cc1nn(C2CCCCC2)c2sc(C(=O)Nc3ccc(C(=O)N4CCN(C)CC4)cc3)cc12 [Example 32] ; pIC50 = 5.60

---

# Target System: PDE 7 (phosphodiesterase VII) (Homo sapiens (Human))
# Assay Overview: PDE 7 inhibiting effect (3H-cAMP hydrolysis, PDE 7 active fraction from MOLT-4 cells)
# Assay type: biochemical
# Details: PDE 7 fraction from MOLT-4 cells, 0.064 μM cAMP, 10 μM rolipram, 2 hours at 25° C.; dimethanesulfonate; read-out: PDE7 IC50
Measured Metric: pIC50
Give only the number. pIC50 is defined as minus log10 of concentration in molar units.

The molecule Cc1nn(C2CCCCC2)c2sc(C(=O)Nc3ccc(N4CCC(O)CC4)c(F)c3)cc12 [Example 365, dimethanesulfonate] , when measured on PDE 7 (phosphodiesterase VII) (Homo sapiens (Human)), yielded pIC50 of 7.39

---

# maps each entry to its pIC50
# Target System: PDE 4 (phosphodiesterase IV)
# Assay Overview: PDE 4 inhibiting effect (3H-cAMP hydrolysis, PDE 4 active fraction from Balb/c mouse liver)
# Type: biochemical
# Details: PDE 4 fraction from Balb/c mice liver, 0.064 μM cAMP, 2 hours at 25° C.; read-out: PDE4 IC50
Friendly reminder that pIC50 comes from taking -log10 of the concentration in mol/L.

Below, 8 compounds whose answers are already recorded.
Compound | Target System | Measured Metric | Assay Value
CC(=O)N1CCN([C@H]2CC[C@H](NC(=O)c3cc4c(C)nn(C5CCOCC5)c4s3)CC2)CC1 | PDE 4 (phosphodiesterase IV) | pIC50 | 5.85
COCCN(C)[C@H]1CC[C@H](NC(=O)c2cc3c(C)nn(C4CCCCC4)c3s2)CC1 | PDE 4 (phosphodiesterase IV) | pIC50 | 5.03
Cc1nn(C2CCCCC2)c2sc(C(=O)N[C@H]3CC[C@H](N4CCN(C)CC4)CC3)cc12 | PDE 4 (phosphodiesterase IV) | pIC50 | 5.89
CCOC(=O)Nc1ccc(NC(=O)c2cc3c(C)nn(C4CCCCC4)c3s2)cc1 | PDE 4 (phosphodiesterase IV) | pIC50 | 5.30
CNC(=O)c1ccc(NC(=O)c2cc3c(C)nn(C4CCCCC4)c3s2)cn1 | PDE 4 (phosphodiesterase IV) | pIC50 | 5.82
CCOC(=O)c1ccc(NC(=O)c2cc3c(C)nn(C4CCCCC4)c3s2)cc1 | PDE 4 (phosphodiesterase IV) | pIC50 | 4.82
Cc1nn(C2CCCCC2)c2sc(C(=O)Nc3ccc(CN4CCC(O)CC4)nc3)cc12 | PDE 4 (phosphodiesterase IV) | pIC50 | 5.60
Cc1nn(C2CCCCC2)c2sc(C(=O)N[C@H](C)CN3C(=O)CNC3=O)cc12 | PDE 4 (phosphodiesterase IV) | pIC50 | 5.40

Proceed to the following item.
The reported value for Cc1nn(C2CCCCC2)c2sc(C(=O)Nc3ccc4c(c3)CCN4C(=O)C(C)(C)C)cc12 in terms of pIC50 is 5.19

---

# Target System: PDE 7 (phosphodiesterase VII) (Homo sapiens (Human))
# Assay Overview: PDE 7 inhibiting effect (3H-cAMP hydrolysis, PDE 7 active fraction from MOLT-4 cells)
# Type: biochemical
# Details: PDE 7 fraction from MOLT-4 cells, 0.064 μM cAMP, 10 μM rolipram, 2 hours at 25° C.; read-out: PDE7 IC50
Measured Metric: IC50 (µM)
Just the number in µM, nothing appended.

Please review the entries below; each comes with its answer.
Compound | Target System | Measured Metric | Assay Value
Cc1nn(C2CCCCC2)c2sc(C(=O)Nc3ccc(C4CCN(C)CC4)cc3)cc12 [Example 142] | PDE 7 (phosphodiesterase VII) (Homo sapiens (Human)) | IC50 | 0.014
Cc1nn(C2CCCCC2)c2sc(C(=O)N[C@H]3CC[C@H](N4CCCN(C)CC4)CC3)cc12 [Example 167] | PDE 7 (phosphodiesterase VII) (Homo sapiens (Human)) | IC50 | 0.015
Cc1nn(C2CCCCC2)c2sc(C(=O)Nc3cccc(S(=O)(=O)N4CCC(O)CC4)c3)cc12 [Example 264] | PDE 7 (phosphodiesterase VII) (Homo sapiens (Human)) | IC50 | 0.081

Turning now to a further record.
IC50 of Cc1nn(C2CCCCC2)c2sc(C(=O)Nc3ccc(N4CCC(O)CC4)c(F)c3F)cc12 [Example 371] , assay on PDE 7 (phosphodiesterase VII) (Homo sapiens (Human)), is 0.017

---

# Target System: PDE 4 (phosphodiesterase IV)
# Assay Overview: PDE 4 inhibiting effect (3H-cAMP hydrolysis, PDE 4 active fraction from Balb/c mouse liver)
# Format: biochemical
# Details: PDE 4 fraction from Balb/c mice liver, 0.064 μM cAMP, 2 hours at 25° C.; read-out: PDE4 IC50
# Description: Methods for Evaluating the PDE 4 Inhibiting Effect The PDE 4 (phosphodiesterase IV) inhibiting effect of the compounds of the present invention was performed by the following method, which was modified assay method described in Biochemical. […]
Structures can show the parent of a compound that is named as a salt.
Measured Metric: pIC50
Please note pIC50 is a logarithmic value: minus log10 of concentration in mol/L. Answer with that number alone.

Illustrative cases are given below, each with its answer.
Molecule | Measured Metric | Assay Value
Cc1nn(C2CCCCC2)c2sc(C(=O)Nc3ccc(CN4CCOCC4)cc3)cc12 [Example 199, fumarate] | pIC50 | 5.24
Cc1nn(C2CCCCC2)c2sc(C(=O)N[C@H]3CC[C@H](N4C(=O)CCC4=O)CC3)cc12 | pIC50 | 5.80
CNC1CCN([C@H]2CC[C@H](NC(=O)c3cc4c(C)nn(C5CCCCC5)c4s3)CC2)CC1 | pIC50 | 6.12

The measured pIC50 that Cc1nn(C2CCCCC2)c2sc(C(=O)N[C@H]3CC[C@H](CN4C(=O)CNC4=O)C3)cc12 showed for PDE 4 (phosphodiesterase IV) is 5.33

Response field pIC50 (PDE 4 (phosphodiesterase IV)) for item Cc1nn(C2CCCCC2)c2sc(C(=O)N[C@H]3CC[C@H](CO)C3)cc12 : 5.08

Record for Cc1nn(C2CCOCC2)c2sc(C(=O)N[C@H]3CC[C@H](N4CCN(C)C(=O)C4)CC3)cc12 under target or system PDE 4 (phosphodiesterase IV): pIC50 reported as 5.24

The molecule COCCNC(=O)c1ccc(NC(=O)c2cc3c(C)nn(C4CCCCC4)c3s2)cc1 on PDE 4 (phosphodiesterase IV): pIC50 was 5.70

# Cc1nn(C2CCCCC2)c2sc(C(=O)N[C@H]3CC[C@H](N4CCNC4=O)CC3)cc12 with PDE 4 (phosphodiesterase IV): pIC50 is 5.68

Here Cc1nn(C2CCCCC2)c2sc(C(=O)N[C@H]3CC[C@H](C(=O)O)C3)cc12 was tested on PDE 4 (phosphodiesterase IV), and its pIC50 came to 5.00
